# System Under Test: human urokinase (uPA) binding to the specific receptor uPAR (Homo sapiens)
# Sequence (Q03405 23-305 limits assumed): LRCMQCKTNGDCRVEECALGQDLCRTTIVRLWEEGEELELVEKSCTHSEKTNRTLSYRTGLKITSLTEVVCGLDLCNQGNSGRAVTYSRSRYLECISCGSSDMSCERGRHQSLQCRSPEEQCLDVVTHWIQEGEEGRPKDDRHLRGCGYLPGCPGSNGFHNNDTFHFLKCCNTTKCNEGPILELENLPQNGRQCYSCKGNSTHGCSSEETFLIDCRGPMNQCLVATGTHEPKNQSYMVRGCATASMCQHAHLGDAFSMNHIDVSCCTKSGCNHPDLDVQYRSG
# Measurement Notes: ELISA test of inhibition of uPA binding to the receptor uPAR
# Measurement Setup: compound concentration 1 μg/ml, 96-well microtitre plates
Property Measured: inhibition at 1 µg/mL (%)

Compound Smiles	inhibition at 1 µg/mL (%)
O=C(O)CN1C(=O)C(=Cc2cc(OCCCc3ccccc3)ccc2OCc2cccs2)SC1=S	63
Cc1ccc(COc2ccc(C=C3SC(=S)N(CC(=O)O)C3=O)c(OCc3ccc(C)cc3)c2)cc1	48
O=C(O)CN1C(=O)C(=Cc2cc(OCCCc3ccccc3)ccc2OCc2ccccc2)SC1=S	53
O=C(O)CN1C(=O)C(=Cc2cc(OCCCc3ccc(Cl)cc3)ccc2OCCCc2ccc(Cl)cc2)SC1=S	57
Cc1ccc(COc2ccc(OCc3ccc(C)cc3)c(C=C3SC(=S)N(CC(=O)O)C3=O)c2)cc1	68
